Values compiled from ChEMBL document CHEMBL4364273.

# experiment summary: Tmax in Sprague-Dawley rat at 150 mg/kg, po measured for 24 hrs by LC-MS/MS analysis
# Type: ADME, organism-based
# applied conditions: in vivo

{"smiles text": "COCc1nnc(N2C[C@@H]3C[C@]3(c3ccc(F)cc3Cl)C2)n1-c1ccc(OC)nc1", "units of measure": "min", "Tmax": 40.2}

* * *

# experiment summary: Solubility of compound in FASSIF at pH 6.5
# Assay type: physicochemical

{"smiles text": "COCc1nnc(N2C[C@@H]3C[C@]3(c3ccc(F)cc3Cl)C2)n1-c1ccc(OC)nc1", "solubility (µM)": 108}

* * *

# experiment summary: Half-life in Sprague-Dawley rat at 2 mg/kg, po measured for 24 hrs by LC-MS/MS analysis
# Assay type: ADME, organism-based
# applied conditions: in vivo

{"compound": "COCc1nnc(N2CCC(c3ccc(F)cc3Cl)CC2)n1-c1ccc(OC)nc1", "half-life": "2.39 h"}
{"compound": "COCc1nnc(N2C[C@@H]3C[C@]3(c3cccc(F)c3Cl)C2)n1-c1ccc(OC)nc1", "half-life": "3.15 h"}
{"compound": "CCOCc1nnc(N2C[C@@H]3C[C@]3(c3ccc(F)cc3Cl)C2)n1-c1ccc(OC)nc1", "half-life": "3.48 h"}
{"compound": "COCc1nnc(N2CCC(c3ccc(F)cc3Cl)C2)n1-c1ccc(OC)nc1 (centres undefined)", "half-life": "1.89 h"}

* * *

# experiment summary: Cmax in Beagle dog at 2 mg/kg, po measured for 24 hrs by LC-MS/MS analysis
# Format: ADME, organism-based, Canis lupus familiaris
# Design: dose 2 mg/kg, route oral
# applied conditions: in vivo

{"smiles text": "COCc1nnc(N2C[C@@H]3C[C@]3(c3ccc(F)cc3Cl)C2)n1-c1ccc(OC)nc1", "Cmax, ng/mL": 930}

* * *

# experiment summary: Cmax in nude mouse at 4 mg/kg, po measured for 24 hrs by LC-MS/MS analysis
# Type: ADME, organism-based
# Design: dose 4 mg/kg, route oral
# applied conditions: in vivo
quantity name: Cmax

{"smiles text": "COCc1nnc(N2C[C@@H]3C[C@]3(c3ccc(F)cc3Cl)C2)n1-c1ccc(OC)nc1", "quantity name": "Cmax", "val": "0.33 µg/mL"}

* * *

# experiment summary: Half-life in Sprague-Dawley rat at 150 mg/kg, po measured for 24 hrs by LC-MS/MS analysis
# Assay type: ADME, organism-based
# applied conditions: in vivo

{"smiles text": "COCc1nnc(N2C[C@@H]3C[C@]3(c3ccc(F)cc3Cl)C2)n1-c1ccc(OC)nc1", "half-life / h": 3.24}

* * *

# experiment summary: Tmax in Beagle dog at 20 mg/kg, po measured for 24 hrs by LC-MS/MS analysis
# Type: ADME, organism-based, Canis lupus familiaris
# applied conditions: in vivo

{"smiles text": "COCc1nnc(N2C[C@@H]3C[C@]3(c3ccc(F)cc3Cl)C2)n1-c1ccc(OC)nc1", "Tmax (min)": 52.8}

* * *

# experiment summary: Half-life in Sprague-Dawley rat at 30 mg/kg, po measured for 24 hrs by LC-MS/MS analysis
# Format: ADME, organism-based
# applied conditions: in vivo
quantity name: half-life

{"smiles text": "COCc1nnc(N2C[C@@H]3C[C@]3(c3ccc(F)cc3Cl)C2)n1-c1ccc(OC)nc1", "val": "2.23 h"}

* * *

# tested target: Oxytocin receptor (Homo sapiens, UniProt P30559)
# Sequence (P30559 whole entry): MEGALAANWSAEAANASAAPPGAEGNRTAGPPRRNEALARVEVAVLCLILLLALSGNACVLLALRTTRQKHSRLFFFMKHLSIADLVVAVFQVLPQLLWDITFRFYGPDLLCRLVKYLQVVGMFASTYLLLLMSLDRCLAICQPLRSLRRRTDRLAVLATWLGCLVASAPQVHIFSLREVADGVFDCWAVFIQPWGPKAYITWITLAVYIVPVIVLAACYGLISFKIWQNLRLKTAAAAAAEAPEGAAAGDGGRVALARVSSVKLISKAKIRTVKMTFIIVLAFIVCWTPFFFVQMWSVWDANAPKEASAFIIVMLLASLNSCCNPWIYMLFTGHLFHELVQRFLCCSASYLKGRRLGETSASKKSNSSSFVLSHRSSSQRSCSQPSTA
# experiment summary: Antagonist activity at human OTR expressed in HEK293 cells assessed as decrease in calcium flux measured after 10 mins in […] by Fluo-4 dye based microplate reader based assay

{"compound": "COCc1nnc(N2CC3CN(c4ccc(F)cc4Cl)C3C2)n1-c1ccc(OC)nc1 (stereo unspecified)", "IC50 (nM)": 121}
{"compound": "CCOCc1nnc(N2C[C@@H]3C[C@]3(c3ccc(F)cc3Cl)C2)n1-c1ccc(OC)nc1", "IC50 (nM)": 9.3}
{"compound": "COCc1nnc(N2CC3(CCc4cc(F)ccc4O3)C2)n1-c1ccc(OC)nc1", "IC50 (nM)": 401}
{"compound": "COc1ccc(-n2c(C3CC3)nnc2N2C[C@@H]3C[C@]3(c3ccc(F)cc3Cl)C2)cn1", "IC50 (nM)": 433}
{"compound": "COc1ccc(-n2c(CO[C@@H]3CCOC3)nnc2N2C[C@@H]3C[C@]3(c3ccc(F)cc3Cl)C2)cn1", "IC50 (nM)": 223}
{"compound": "COc1ccc(-n2c(CO[C@H]3CCOC3)nnc2N2C[C@@H]3C[C@]3(c3ccc(F)cc3Cl)C2)cn1", "IC50 (nM)": 184}
{"compound": "COCc1nnc(N2CC3CN(c4ccc(F)cc4Cl)CC32)n1-c1ccc(OC)nc1 (stereo unspecified)", "IC50 (nM)": 850}
{"compound": "COCc1nnc(N2C3CCC2CC(Oc2ccc(F)cc2Cl)C3)n1-c1ccc(OC)nc1 (stereo unspecified)", "IC50 (nM)": 1230}
{"compound": "COCc1nnc(N2CC3COCC3(c3ccc(F)cc3Cl)C2)n1-c1ccc(OC)nc1 (stereo unspecified)", "IC50 (nM)": 2560}
{"compound": "CC[C@H](C)[C@@H]1C(=O)N[C@H](C2Cc3ccccc3C2)C(=O)N1[C@@H](C(=O)N1CCOCC1)c1ccc(C)nc1C", "IC50 (nM)": 9.2}
{"compound": "COCc1nnc(N2CC3(C2)OCc2cc(F)ccc23)n1-c1ccc(OC)nc1", "IC50 (nM)": 6760}
{"compound": "COCc1nnc(N2CCC(c3ccc(F)cc3Cl)C2)n1-c1ccc(OC)nc1 (stereo unspecified)", "IC50 (nM)": 27}
{"compound": "COc1ccc(-n2c(CC#N)nnc2N2C[C@@H]3C[C@]3(c3ccc(F)cc3Cl)C2)cn1", "IC50 (nM)": 235}
{"compound": "COCc1nnc(N2CCC(c3ccc(F)cc3Cl)CC2)n1-c1ccc(OC)nc1", "IC50 (nM)": 10}
{"compound": "COCc1nnc(N2C[C@@H]3C[C@]3(c3ccc(F)cc3Cl)C2)n1-c1ccc(OC)nc1", "IC50 (nM)": 15}
{"compound": "COc1ccc(-n2c(COC3CCOCC3)nnc2N2C[C@@H]3C[C@]3(c3ccc(F)cc3Cl)C2)cn1", "IC50 (nM)": 826}
{"compound": "COCc1nnc(N2CCN(Cc3ccc(F)cc3Cl)CC2)n1-c1ccc(OC)nc1", "IC50 (nM)": 910}
{"compound": "COCc1nnc(N2C[C@@H]3C[C@]3(c3cccc(F)c3Cl)C2)n1-c1ccc(OC)nc1", "IC50 (nM)": 30}
{"compound": "COCc1nnc(N2CC(Oc3ccc(F)cc3Cl)C2)n1-c1ccc(OC)nc1", "IC50 (nM)": 23.2}
{"compound": "COCc1nnc(N2C[C@H]3C[C@@H](Oc4ccc(F)cc4Cl)C[C@H]3C2)n1-c1ccc(OC)nc1", "IC50 (nM)": 1380}
